All values here come from ChEMBL document CHEMBL5344426.

assay-comment: Solubility of compound in PBS incubated for 48 to 72 hrs by LC-MS analysis
Format: physicochemical
settings: time 48-72 hrs
Catalogue of solubility readings, one per entry.
Entry rule: numbers only, all in µM.

Ask: solubility for C[C@@H](n1c(=O)[nH]c2ccc(C3=NC(=O)[C@](C)(c4cnc(C(F)(F)F)nc4)N3)cc21)C(C)(C)C ?
Reply: 154

Ask: solubility for C[C@H](NC(=O)c1ccc2[nH]c(=O)n([C@H](C)C(C)(C)C)c2c1)c1cnc(C(F)(F)F)nc1 ?
Reply: 155

# ---- query compound ----
Ask: solubility for C[C@@H](n1c(=O)[nH]c2ccc(C3=NC(=O)[C@](C)(c4ccc(C(F)(F)F)nc4)N3)cc21)C(C)(C)C ?
Reply: 66

* * *

Catalogue of solubility readings, one per entry.
assay-comment: Solubility of compound in HCL incubated for 48 to 72 hrs by LC-MS analysis
Format: physicochemical
settings: time 48-72 hrs

Ask: solubility for C[C@@H](n1c(=O)[nH]c2ccc(C3=NC(=O)[C@](C)(c4ccc(C(F)(F)F)nc4)N3)cc21)C(C)(C)C ?
Reply: 311 µM

Ask: solubility for C[C@H](NC(=O)c1ccc2[nH]c(=O)n([C@H](C)C(C)(C)C)c2c1)c1cnc(C(F)(F)F)nc1 ?
Reply: 180 µM

# ---- query compound ----
Ask: solubility for C[C@@H](n1c(=O)[nH]c2ccc(C3=NC(=O)[C@](C)(c4cnc(C(F)(F)F)nc4)N3)cc21)C(C)(C)C ?
Reply: 329 µM

* * *

target-under-test: N-acetyllactosaminide beta-1,3-N-acetylglucosaminyltransferase 2 (Homo sapiens, UniProt Q9NY97)
Sequence (Q9NY97 whole entry): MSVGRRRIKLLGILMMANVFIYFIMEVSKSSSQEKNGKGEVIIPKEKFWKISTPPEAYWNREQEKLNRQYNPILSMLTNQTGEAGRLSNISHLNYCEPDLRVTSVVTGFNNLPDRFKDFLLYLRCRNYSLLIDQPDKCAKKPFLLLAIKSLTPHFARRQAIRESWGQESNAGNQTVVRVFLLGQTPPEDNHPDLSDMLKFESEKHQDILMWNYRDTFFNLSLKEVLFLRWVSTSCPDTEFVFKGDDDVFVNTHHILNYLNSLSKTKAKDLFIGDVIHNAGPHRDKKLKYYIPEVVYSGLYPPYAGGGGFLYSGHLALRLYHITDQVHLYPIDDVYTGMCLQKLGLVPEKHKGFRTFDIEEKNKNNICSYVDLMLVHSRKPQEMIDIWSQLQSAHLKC
assay-comment: Inhibition of B3GNT2 (unknown origin) using N-acetyl-lactosamine and UDP-GlcNAc as substrate incubated for 1.5 to 2 hrs by UDP-Glo based analysis
settings: read-out: IC50
Catalogue of pIC50 readings, one per entry.
Kindly note that pIC50 refers to -log10 of the concentration in mol/L and answer with the value alone.

Ask: pIC50 for C[C@@H](n1c(=O)[nH]c2ccc(C3=N[C@@](Cc4ccccc4)(c4cnc(C(F)(F)F)nc4)NC3=O)cc21)C(C)(C)C ?
Reply: 7.89

Ask: pIC50 for C[C@@H](n1c(=O)[nH]c2ccc(C(=O)NC(C)(C)c3ccc(Cl)cc3)cc21)C(C)(C)C ?
Reply: 6.08

Ask: pIC50 for C[C@@H](n1c(=O)[nH]c2ccc(C(=O)Nc3ccccc3)cc21)C(C)(C)C ?
Reply: 6.09

Ask: pIC50 for Cc1ncc([C@]2(C)NC(c3ccc4[nH]c(=O)n([C@H](C)C(C)(C)C)c4c3)=NC2=O)cn1 ?
Reply: 7.62

Ask: pIC50 for C[C@H](NC(=O)c1ccc2[nH]c(=O)n([C@H](C)C(C)(C)C)c2c1)c1ccc(Br)cn1 ?
Reply: 7.00

Ask: pIC50 for C[C@@H](n1c(=O)[nH]c2ccc(C3=NC(=O)[C@](C)(c4cnc(C(F)(F)F)nc4)N3)cc21)C(C)(C)C ?
Reply: 8.05

Ask: pIC50 for C[C@@H](n1c(=O)[nH]c2ccc(C3=N[C@@](C)(c4ccc(Cl)cn4)NC3=O)cc21)C(C)(C)C ?
Reply: 7.16

Ask: pIC50 for C[C@H](NC(=O)c1ccc2[nH]c(=O)n([C@H](C)C(C)(C)C)c2c1)c1ccc(C(F)(F)F)cn1 ?
Reply: 6.64

Ask: pIC50 for C[C@@H](n1c(=O)[nH]c2ccc(C3=NC(=O)[C@](C)(c4ccc(Cl)cn4)N3)cc21)C(C)(C)C ?
Reply: 7.18

Ask: pIC50 for CC(C)Cn1c(=O)[nH]c2ccc(C(=O)O)cc21 ?
Reply: 5.04
